PIK3CD (Human): recorded IC50 for assorted compounds

Solved entries:
CN(c1cncnc1)c1nc(N2CCOCC2)nc(-n2c(C(F)F)nc3ccccc32)n1; < 100 nM
COc1cccc2c1nc(C(F)F)n2-c1nc(Nc2ccc(N(C)C)nc2)nc(N2CCOCC2)n1; < 100 nM
FC(F)c1nc2ccccc2n1-c1nc(-c2cccnc2)cc(N2CCOCC2)n1; 100 to 1000 nM

Pending compound:
Lab note: record IC50 of COc1ncc(-c2cc(N3CCOCC3)nc(-n3c(C(F)F)nc4c(OC)cccc43)n2)cn1 tested on PIK3CD (Human).
100 to 1000 nM

* * *

Listed here: molecules with reported pIC50 for PIK3CA (human).
pIC50: −log10 of the molar value.

# example entries with known answers
COc1cccc2c1nc(C(F)F)n2-c1nc(N2CCOCC2)nc(N(C)c2cccnc2)n1; > 7.00
COc1cc(N)cc2c1nc(C(F)F)n2-c1nc(-c2cccnc2)cc(N2CCOCC2)n1; > 7.00
FC(F)c1nc2ccccc2n1-c1nc(Nc2cccnc2)nc(N2CCOCC2)n1; > 7.00
CS(=O)(=O)c1nc2ccccc2n1-c1nc(Nc2cccnc2)nc(N2CCOCC2)n1; 6.00 to 7.00

Give pIC50 only, for COc1cccc2c1nc(C(F)F)n2-c1nc(-c2cccnc2)cc(N2CCOCC2)n1 , using PIK3CA (human) data.
> 7.00

Recall the reported pIC50 of COc1ccncc1Nc1nc(N2CCOCC2)nc(-n2c(C(F)F)nc3c(OC)cccc32)n1 on PIK3CA (human) and write it down.
> 7.00
